Data provenance is patent US11472877.

System Name: T1, human TREM2 on BWZ cells (human, UniProt Q9NZC2 19-230)
T1 construct: whole, on cells; not tied to the cell line; also called BWZ Human TREM2
T1 sequence (looked up): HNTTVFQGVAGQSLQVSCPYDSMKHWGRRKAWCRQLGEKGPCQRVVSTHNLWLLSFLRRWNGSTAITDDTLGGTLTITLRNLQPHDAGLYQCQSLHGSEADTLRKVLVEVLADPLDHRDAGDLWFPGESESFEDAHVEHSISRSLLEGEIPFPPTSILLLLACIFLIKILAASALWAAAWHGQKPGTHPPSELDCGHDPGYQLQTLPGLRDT
Experimental Details: FACS, BWZ cells
Result Type: binding result

binder="T1-80 (antibody, IgG1, V domains shown, huIgG1; also called TI-80; ADI-19159) VH: QVQLVESGGGVVQPGRSLRLSCAASGFTFSSYGMHWVRQAPGKGLEWVALIWYDGSNKYYADSVKGRFTISRDNSKNTLYLQMNSLRAEDTAVYYCARELIVGATGGLTYYYGMDVWGQGTTVTVSS VL: EIVMTQSPATLSVSPGERATLSCRASQSVGSNLAWYQQKPGQAPRLLIYGASTRATGIPARFSGSGSGTEFTLTISSLQSEDFAVYYCQQDHDRPLTFGGGTKVEIK" test_value="no binding"
binder="T1-57 (antibody, IgG1, V domains shown, huIgG1; also called TI-57; ADI-19132) VH: EVQLVESGGGLVQPGRSLRLSCAASGFTFDDYAMHWVRQAPGKGLEWVSGITWNSGSIGYADSVKGRFTISRDNAKNSLYLQMNSLRAEDTALYYCAKGPRYSKPYFDYWGQGTLVTVSS VL: DIQMTQSPSSVSASVGDRVTITCRASQGIDSWLAWYQQKPGKAPKLLIYAASSLQSGVPSRFSGSGSGTDFTLTISSLQPEDFATYYCQQRAVFPPTFGGGTKVEIK" test_value="no binding"
